Assay: Cytotoxicity to cells in the viral inhibition assay (MTT assay)
Assay type: cell-based
Conditions: human, primary human macrophages, 50% cell viability, MTT assay, estimated in separate experiments at greater compound concentrations, read-out: TC50 (the source's name)
MEASURED ATTRIBUTE: CC50

>>> recorded_measurement("COc1ccc2cc(C(=O)NC(=N)N)ccc2c1Br")
"> 300 µM"
>>> recorded_measurement("N=C(N)NC(=O)/C=C/c1cccc(C(=O)c2ccccc2)c1")
"25 to 495 µM"
>>> recorded_measurement("N=C(N)NC(=O)c1ccc2c(-c3ccsc3)cccc2c1")
"> 200 µM"

====

Molecular target: Vpu (Human immunodeficiency virus type 1 group M subtype B)
Construct: expressed in transfected cells
Sequence (P05919 whole entry): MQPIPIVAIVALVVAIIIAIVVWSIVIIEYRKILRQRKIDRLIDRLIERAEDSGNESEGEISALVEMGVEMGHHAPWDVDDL
Experiment: Bacterial bioassay, Vpu
Type: cell-based
Conditions: mean bacterial bioassay score; Vpu of HIV
MEASURED ATTRIBUTE: Average Bacterial Assay Score, Vpu

>>> recorded_measurement("N=C(N)NC(=O)c1ccc2c(-c3ccccc3)cccc2c1")
0.12
>>> recorded_measurement("N=C(N)NC(=O)c1ccc2c(Br)cccc2c1")
0.22
>>> recorded_measurement("N=C(N)NC(=O)c1ccc2cc(-c3ccsc3)ccc2c1")
0.38
>>> recorded_measurement("Cc1nn(C)c(C)c1-c1cccc2cc(C(=O)NC(=N)N)ccc12")
0.12
>>> recorded_measurement("N=C(N)NC(=O)c1ccc2c(-c3cccs3)cccc2c1")
0.45
>>> recorded_measurement("N=C(N)NC(=O)/C=C/c1cccc2c1CCC2")
1.2
>>> recorded_measurement("COc1ccc(-c2cccc3cc(C(=O)NC(=N)N)ccc23)c(OC)n1")
0.20
>>> recorded_measurement("CC(C)Cn1cc(-c2cccc3cc(C(=O)NC(=N)N)ccc23)cn1")
0.00
>>> recorded_measurement("CS(=O)(=O)Nc1ccc(-c2cccc3cc(C(=O)NC(=N)N)ccc23)cc1")
0.00
>>> recorded_measurement("COc1cc(C(=O)NC(=N)N)c(OC)c2ccccc12")
0.62
>>> recorded_measurement("COc1c(C(=O)NC(=N)N)ccc2ccccc12")
1.54
